So I've got a bunch of molecules here, and I need their pEC50 values.
Tested on: HIV-1 (IIIB isolate)
Assay type: cell-based
Assay Conditions: average of at least two experiments; cell line not stated; read-out: Anti-HIV Activity EC50
Remember, pEC50 is on a log scale: it is -log10 of the molar concentration.

Endpoint output: pEC50 of C=C(C)[C@@H]1CC[C@]2(CO)CC[C@]3(C)[C@H](CC[C@@H]4[C@@]5(C)CC[C@H](OC(=O)CC(C)(C)CC(=O)O)C(C)(C)[C@@H]5CC[C@]43C)[C@@H]12 [Compound 8] . Value? 8.36

Endpoint output: pEC50 of C=C(C)[C@@H]1CC[C@]2(CO)CC[C@]3(C)[C@H](CC[C@@H]4[C@@]5(C)CC[C@H](OC(=O)COCC(=O)O)C(C)(C)[C@@H]5CC[C@]43C)[C@@H]12 [Compound 12] . Value? 7.61

Endpoint output: pEC50 of C=C(C)[C@@H]1CC[C@]2(CO)CC[C@]3(C)[C@H](CC[C@@H]4[C@@]5(C)CC[C@H](OC(=O)CC(C)(C)C(=O)O)C(C)(C)[C@@H]5CC[C@]43C)[C@@H]12 [Compound 6] . Value? 8.25

Endpoint output: pEC50 of C=C(C)[C@@H]1CC[C@]2(CO)CC[C@]3(C)[C@H](CC[C@@H]4[C@@]5(C)CC[C@H](OC(=O)CCCC(=O)O)C(C)(C)[C@@H]5CC[C@]43C)[C@@H]12 [Compound 10, 3-O-glutaryl betulin] . Value? 7.18

Endpoint output: pEC50 of C=C(C)[C@@H]1CC[C@]2(CO)CC[C@]3(C)[C@H](CC[C@@H]4[C@@]5(C)CC[C@H](OC(=O)CCCC(=O)OCC)C(C)(C)[C@@H]5CC[C@]43C)[C@@H]12 [Compound 18, 3-O-glutaryl betulin ethyl ester] . Value? 7.77
